test system: MDA-MB-231 tumors; experiment: in vivo; assay type: in vivo, nude mice; details: female, nude, mouse, in vivo, 2 h
Numbered stars: 1 amine (or outer) side, 2 acyl side, 3 side chain; on linkers, the order of the positions; unused ones are H or OH. Square brackets hold non-standard residues; d marks the D form. Peptide text beside a SMILES is read from it. * marks the point of attachment. DOTA = O=C(O)CN1CCN(CC(=O)O)CCN(CC(=O)*)CCN(CC(=O)O)CC1; Cha = N[C@@H](CC1CCCCC1)C(=O)O; X1 = O=C(CCC(=O)[*:2])CN[*:1]; 4Abz = Nc1ccc(C(=O)O)cc1; Nle = CCCC[C@H](N)C(=O)O
Reported values of Uptake in Spleen for individual entries
Reply numerically in % ID/g, unit not repeated.

{"MOLECULE": "CCCC[C@H](NC(=O)[C@H](Cc1c[nH]cn1)NC(=O)[C@H](CC1CCCCC1)NC(=O)[C@@H](NC(=O)[C@H](C)NC(=O)[C@H](Cc1c[nH]c2ccccc12)NC(=O)[C@H](CCC(N)=O)NC(=O)[C@H](CS)NC(=O)CNC(=O)CNC(=O)CCC(=O)CNC(=O)CN1CCN(CC(=O)O)CCN(CC(=O)O)CCN(CC(=O)O)CC1)C(C)C)C(=O)N[C@@H](CCSC)C(N)=O [^68Ga-DOTA-ALA-BN Tris-, metal not drawn] ({DOTA}-[X1]GGCQWAV[Cha]H[Nle]M-NH2)", "TARGET UNDER TEST": "MDA-MB-231 tumors", "MEASUREMENT": 0.35}
{"MOLECULE": "CCCC[C@H](NC(=O)[C@H](Cc1c[nH]cn1)NC(=O)[C@H](CC1CCCCC1)NC(=O)[C@@H](NC(=O)[C@H](C)NC(=O)[C@H](Cc1c[nH]c2ccccc12)NC(=O)[C@H](CCC(N)=O)NC(=O)[C@H](CS)NC(=O)CNC(=O)CNC(=O)CCC(=O)CNC(=O)CN1CCN(CC(=O)O)CCN(CC(=O)O)CCN(CC(=O)O)CC1)C(C)C)C(=O)N[C@@H](CCSC)C(N)=O [^68Ga-DOTA-ALA-BN Cyclen, metal not drawn] ({DOTA}-[X1]GGCQWAV[Cha]H[Nle]M-NH2)", "TARGET UNDER TEST": "MDA-MB-231 tumors", "MEASUREMENT": 0.17}

Proceeding to the next molecule to report its Uptake in Spleen.
Provide Uptake in Spleen, tested on MDA-MB-231 tumors, for CCCC[C@H](NC(=O)[C@H](Cc1c[nH]cn1)NC(=O)[C@H](CC1CCCCC1)NC(=O)[C@@H](NC(=O)[C@H](C)NC(=O)[C@H](Cc1c[nH]c2ccccc12)NC(=O)[C@H](CCC(N)=O)NC(=O)[C@H](CS)NC(=O)CNC(=O)CNC(=O)c1ccc(NC(=O)CN2CCN(CC(=O)O)CCN(CC(=O)O)CCN(CC(=O)O)CC2)cc1)C(C)C)C(=O)N[C@@H](CCSC)C(N)=O [^68Ga-DOTA-Abz-BN Tris-, metal not drawn] ({DOTA-4Abz}-GGCQWAV[Cha]H[Nle]M-NH2) .
0.09
